Tested on: HCT-15 colon
TEST_SUMMARY: NCI tumour cell line growth inhibition, 48 h
# reported TGI; entries follow

Please review the following examples before continuing.
COC(=O)CN=C1NC(=S)N(Cc2ccc(OC)cc2)C12CCCC2 : > 100 µM
O=c1ccn(Cc2ccccc2CCl)c(=O)[nH]1 : 35.8 µM
CCN(CC)CCCC(C)Nc1c2ccc(Cl)cc2nc2cc(Cl)ccc12 (centres undefined) : 9.85 µM
C[C@@H]1CC[C@H]2[C@@H](C)C(OC/C=C/COC3O[C@@H]4O[C@@]5(C)CC[C@H]6[C@H](C)CC[C@@H]([C@H]3C)[C@@]46OO5)O[C@@H]3O[C@@]4(C)CC[C@@H]1[C@]32OO4 (some centres undefined) : > 33 µM
CN1CN(c2ccccc2)C2(CCN(C3Nc4ccccc4O3)CC2)C1=O (centres undefined) : 28.8 µM

Item under review: CN1C(c2ccccc2)CC(C)(O)CC1c1ccccc1 (centres undefined) . Reported TGI?
> 100 µM

# TGI lookup, item `Cc1cccc2c(N)c3cccc(C(=O)NCC[N+](C)(C)Cc4ccc(S(C)(=O)=O)cc4)c3nc12`
> 100 µM

Look up TGI: `O=c1sc(Nc2ccc3ccccc3c2Cl)nc2ccccc12`
> 100 µM

Looking for the measured TGI of `COC(=O)CNC(=O)CNC(=O)CSc1nnc(COc2ccc(Cl)cc2)n1-c1ccccc1` , can you help?
> 100 µM

These measurements were taken from PubChem BioAssay (NCI).
